I'd appreciate it if you could supply melting point values for the items below.

Prompt line: Returns the measured melting point for the input compound. Input: Cc1ccc(-n2[nH]c(-c3ccco3)cc2=N)cc1
Response line: 93 to 95 °C

Prompt line: Returns the measured melting point for the input compound. Input: C#Cc1ccc(C(=O)O)cn1
Response line: 129 to 131 °C

Prompt line: Returns the measured melting point for the input compound. Input: O=C(O)c1cnc(-c2ccsc2)s1
Response line: 208 to 210 °C

Prompt line: Returns the measured melting point for the input compound. Input: Cn1c(C(=O)O)c(Cl)c2cc(Br)ccc21
Response line: 250 to 252 °C

Prompt line: Returns the measured melting point for the input compound. Input: NC(=S)NN=Cc1ccccc1Cl
Response line: 210 to 212 °C

Prompt line: Returns the measured melting point for the input compound. Input: Cc1nnc(-c2ccc(C(=O)O)cc2)o1
Response line: 284 to 286 °C

Prompt line: Returns the measured melting point for the input compound. Input: O=C(O)CCc1nc2ccccc2[nH]1
Response line: 229 to 231 °C

###

measured-quantity: melting point

Prompt line: Returns the measured melting point for the input compound. Input: Nc1ccc(-c2nnc3n2CCCC3)cc1
Response line: 227 to 229 °C

Prompt line: Returns the measured melting point for the input compound. Input: N#CCCn1cc(C(=O)CCl)c2ccccc21
Response line: 138 to 140 °C

Prompt line: Returns the measured melting point for the input compound. Input: O=C(CCl)Nc1cc(-n2cnnn2)ccc1Cl
Response line: 179 to 181 °C

Prompt line: Returns the measured melting point for the input compound. Input: Cc1ccc(S(N)(=O)=O)c(C(=O)O)c1
Response line: 271 to 273 °C

Prompt line: Returns the measured melting point for the input compound. Input: CC1(n2cc(C=O)cn2)CCS(=O)(=O)C1 (configuration not stated)
Response line: 84 to 86 °C

Prompt line: Returns the measured melting point for the input compound. Input: COc1ccc(CNS(=O)(=O)CC#N)cc1OC
Response line: 126 to 128 °C

Prompt line: Returns the measured melting point for the input compound. Input: COC(=O)c1cc(Cl)nc2ccccc12
Response line: 87 to 89 °C

Prompt line: Returns the measured melting point for the input compound. Input: Cc1ncc(C=O)n1-c1ccccc1
Response line: 64 to 66 °C

Prompt line: Returns the measured melting point for the input compound. Input: CCOC(=O)C(=O)c1ccc2c(c1)OCCO2
Response line: 65 to 67 °C

Prompt line: Returns the measured melting point for the input compound. Input: O=C(O)/C=C/c1ccc(Br)c(Cl)c1
Response line: 175 to 186 °C

Prompt line: Returns the measured melting point for the input compound. Input: COc1cncc(CCC(=O)O)c1
Response line: 102 to 104 °C

Prompt line: Returns the measured melting point for the input compound. Input: Cc1ccc(NC(N)=O)c(C)c1
Response line: 215 to 217 °C

Prompt line: Returns the measured melting point for the input compound. Input: O=C(O)COc1ccc(F)cc1Br
Response line: 142 to 144 °C

Prompt line: Returns the measured melting point for the input compound. Input: CC(C)(C)CC(=O)Nc1ccc(Cl)c(C(=O)O)c1
Response line: 214 to 216 °C

Prompt line: Returns the measured melting point for the input compound. Input: COCCc1ccc(OCCCC(=O)O)cc1
Response line: 47 to 49 °C

Prompt line: Returns the measured melting point for the input compound. Input: Nc1ccc(CCC(=O)O)cn1
Response line: 199 to 201 °C

Prompt line: Returns the measured melting point for the input compound. Input: O=C1CCCc2ccc(F)cc21
Response line: 56 to 58 °C

Prompt line: Returns the measured melting point for the input compound. Input: O=Cc1cc(C(=O)O)cs1
Response line: 173 to 175 °C

Prompt line: Returns the measured melting point for the input compound. Input: COc1ccc(C(O)CCC(=O)O)cc1 (configuration not stated)
Response line: 92 to 94 °C

Prompt line: Returns the measured melting point for the input compound. Input: CC1CC(N)=NN1Cc1ccccc1 (configuration not stated)
Response line: 159 to 161 °C

Prompt line: Returns the measured melting point for the input compound. Input: CC(C)(C)OC(=O)N1CCC(O)(c2ccccc2CO)CC1
Response line: 106 to 108 °C

Prompt line: Returns the measured melting point for the input compound. Input: O=C(O)CCS(=O)(=O)C(F)(F)F
Response line: 104 to 106 °C

Prompt line: Returns the measured melting point for the input compound. Input: C=Cc1nc(-c2ccc(Cl)cc2)no1
Response line: 62 to 64 °C

Prompt line: Returns the measured melting point for the input compound. Input: OCc1cc(Br)cs1
Response line: 30 to 32 °C

Prompt line: Returns the measured melting point for the input compound. Input: Cc1cc(-c2csc(N)n2)c(C)n1CC1CCCO1 (configuration not stated)
Response line: 112 to 116 °C

Prompt line: Returns the measured melting point for the input compound. Input: NC(=O)CCSc1ccc(F)cc1
Response line: 119 to 121 °C

Prompt line: Returns the measured melting point for the input compound. Input: Cc1ccc(NC(=O)OCC(F)(F)F)cc1
Response line: 89 to 93 °C

Prompt line: Returns the measured melting point for the input compound. Input: Cn1ccc(C(=O)N2CCC(CO)CC2)cc1=O
Response line: 174 to 176 °C

Prompt line: Returns the measured melting point for the input compound. Input: CN(CCO)c1ccc([N+](=O)[O-])cc1
Response line: 97 to 99 °C

Prompt line: Returns the measured melting point for the input compound. Input: N#Cc1c(F)cccc1Oc1ccc(C(=O)O)cc1
Response line: 186 to 188 °C

Prompt line: Returns the measured melting point for the input compound. Input: COc1cc(C2(C(=O)O)CCCC2)ccc1C
Response line: 163 to 165 °C

Prompt line: Returns the measured melting point for the input compound. Input: NS(=O)(=O)CCCCl
Response line: 63 to 65 °C

Prompt line: Returns the measured melting point for the input compound. Input: CCc1cc2c(CCl)cc(=O)oc2cc1O
Response line: 216 to 218 °C

Prompt line: Returns the measured melting point for the input compound. Input: CCNS(=O)(=O)c1cc(F)ccc1F
Response line: 68 to 70 °C

Prompt line: Returns the measured melting point for the input compound. Input: CN1CCN(c2cccc(C#N)n2)CC1
Response line: 59 to 61 °C

Prompt line: Returns the measured melting point for the input compound. Input: Cc1csc(CC(N)=NO)n1
Response line: 126 to 128 °C

Prompt line: Returns the measured melting point for the input compound. Input: O=C(Cc1ccc(Br)cc1)Nc1ccc(C(=O)O)cc1
Response line: 282 to 284 °C

Prompt line: Returns the measured melting point for the input compound. Input: O=S(=O)(Cl)c1cccc2ncccc12
Response line: 121 to 123 °C

Prompt line: Returns the measured melting point for the input compound. Input: Nc1nc2ccc(Br)cn2n1
Response line: 183 to 185 °C

Prompt line: Returns the measured melting point for the input compound. Input: Cc1ccc(N2CC(C(=O)O)CC2=O)cc1 (configuration not stated)
Response line: 184 to 186 °C

Prompt line: Returns the measured melting point for the input compound. Input: O=C(O)c1cc(Cl)nc2ccccc12
Response line: 187 to 189 °C

Prompt line: Returns the measured melting point for the input compound. Input: NS(=O)(=O)c1cccc(C(=O)O)c1
Response line: 238 to 240 °C

Prompt line: Returns the measured melting point for the input compound. Input: CC(=NO)c1ccc(OCC(F)(F)F)cc1
Response line: 127 to 129 °C

Prompt line: Returns the measured melting point for the input compound. Input: CC(C(=O)O)c1cc2ccccc2o1 (configuration not stated)
Response line: 91 to 93 °C

Prompt line: Returns the measured melting point for the input compound. Input: O=C(O)C(=O)Nc1ccc(Br)cc1C(F)(F)F
Response line: 116 to 118 °C

Prompt line: Returns the measured melting point for the input compound. Input: CCc1cc(=O)[nH]c(-c2ccncc2)n1
Response line: 172 to 174 °C

Prompt line: Returns the measured melting point for the input compound. Input: CN1CCN(c2ncc(C=O)cn2)CC1
Response line: 90 to 92 °C

Prompt line: Returns the measured melting point for the input compound. Input: Nc1cccc(S(=O)(=O)Nc2nccs2)c1
Response line: 170 to 172 °C

Prompt line: Returns the measured melting point for the input compound. Input: O=C(c1ccccn1)N1CCNCC1
Response line: 231 to 233 °C

Prompt line: Returns the measured melting point for the input compound. Input: Nc1nncc(-c2ccccc2)n1
Response line: 235 to 237 °C

Prompt line: Returns the measured melting point for the input compound. Input: Cc1cc(C=O)cc(C)c1OC(F)F
Response line: 56 to 58 °C

Prompt line: Returns the measured melting point for the input compound. Input: COc1ccc(CCC(=O)O)c(OC)c1OC
Response line: 73 to 75 °C

Prompt line: Returns the measured melting point for the input compound. Input: Cc1cc(NC(=O)C(C)Cl)ccc1Br (configuration not stated)
Response line: 149 to 151 °C

Prompt line: Returns the measured melting point for the input compound. Input: N#CCS(N)(=O)=O
Response line: 100 to 102 °C

Prompt line: Returns the measured melting point for the input compound. Input: O=C1CCc2c(F)ccc(F)c21
Response line: 117 to 119 °C

Prompt line: Returns the measured melting point for the input compound. Input: N#CC1(NC(=O)c2ccccc2)CCC1
Response line: 126 to 128 °C

Prompt line: Returns the measured melting point for the input compound. Input: CCc1nc(C=O)c2ccccn12
Response line: 103 to 105 °C

Origin of measurements: a melting point compilation (Tetko et al.)
